Listing of recorded normalized growth by entry.
assayText: chemical genetic growth profiling, strain panel (AID 1159580);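 also: tested at 20 µM; growth read once vehicle control cultures reached saturation at 30 °C; 1 = growth at the plate median or of vehicle wells; lower values mean less growth of the strain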
conditionParameters: S. cerevisiae deletion strains, growth OD, locus YKL009W, strain mrt4, stronger effect = lower value
Screen size: about 5,500 compounds; about 2,000 (36%) were called active. About 18% were inconclusive and are not listed. The list shows a part of the results.
quantity: normalized growth

{"compound": "O=c1oc2ccccc2cc1O", "reported": 0.937}
{"compound": "Cc1nnc(NS(=O)(=O)c2ccc(N)cc2)s1", "reported": 1.05}
{"compound": "CC(=O)O[C@H]1C[C@@]2(C)[C@@H](C[C@@H](O)C3[C@]2(C)CC[C@H]2[C@H](C)[C@H](O)CC[C@]32C)/C1=C(/CCC=C(C)C)C(=O)O (stereo partly specified)", "reported": 0.99}
{"compound": "O=C(O)C1CCCNC1 (stereo unspecified)", "reported": 1.02}
{"compound": "CC(C)c1nc(N(C)S(C)(=O)=O)nc(-c2ccc(F)cc2)c1/C=C/[C@@H](O)C[C@@H](O)CC(=O)O", "reported": 1.01}
{"compound": "COc1c(C)c2c(c(O)c1C/C=C(\\C)CCC(=O)O)C(=O)OC2", "reported": 0.561}
{"compound": "Cc1ccc(C(=O)c2ccc(CC(=O)O)n2C)cc1", "reported": 0.958}
{"compound": "Clc1ccc(COC(Cn2ccnc2)c2ccc(Cl)cc2Cl)cc1 (stereo unspecified)", "reported": 0.0921}
{"compound": "Cc1cc(CC(=O)O)n(C)c1C(=O)c1ccc(Cl)cc1", "reported": 0.962}
{"compound": "CC1[C@H](C)OC(=O)CC(O)CC(O)CC(O)CCC(O)C(O)C[C@]2(O)CC(O)C(C(=O)O)C(CC(OC3O[C@H](C)[C@@H](O)[C@H](N)[C@@H]3O)/C=C/C=C/C=C/C=C/CC/C=C/C=C/[C@H](C)[C@H]1O)O2 (stereo partly specified)", "reported": 0.0887}
{"compound": "C=NC(C(=O)NC1C(=O)N2C1SC(C)(C)C2C(=O)O)c1ccccc1 (stereo unspecified)", "reported": 1.02}
